Cited source for all entries: the nanobody polyreactivity screen of Harvey et al. (2022)

Assay: yeast display, Sf9 membrane polyspecificity reagent, FACS + sequencing; frameworks hold sequencing errors
measured-metric: polyreactivity (PSR sort gate)

sequence-code | experimental-result
QVQLVESGGGLVQAGGSLRLSCAASGRIFAGYAMGWDRQAPGKERELVATISSGGSTYYADSVKGRFTISRDNAKNTVYLQMNSLKPEDTAVYYCAAEYGTRQYSSYYKLFNYWGQGTQVTVSS | low polyreactivity
QVQLVESGGGLVQAGGSLRLSCAASGRTFYSYAMVWYRQAPGKERELVAAISAGGSTYYADSVKGRFTSSRDNAMTTLYLQMNSLKPEDTAVYYCADTYSYYYVRYHYWGQGTQVTVSS | high polyreactivity
QVQLVESGGGLVQAGGSLRLSCAASGSTFVNYVMGWYRQAPGKERELVAAISRRGTSTRYADSVKGRFTISRDNAKNTVYFQMNSLKPEDTAVYFCAATRYVGVTGYGYWGLGTQVTVSS | high polyreactivity
QVQLVESGGGLVQAGGSLRLICAASGRTFGVYAMGWYRQAPGKERELVATIRTTGSTNYADSVKGRYTISRDNAKITVYLEMNSLKTEDTAVYYCAARQRQSKYYPYTTFTYDYWGQGTQVSVSS | high polyreactivity
QVQLVESGGGLVQAGGILRLSCAASGSTFYRNAMGWYRQEPGKEREFVAAISFRGGGTYADSVKGRFTISRDNAKNTVYLQMNSLKPEDSAVYYCAAESKPRWYVRYDYWGQGTQVTVSS | low polyreactivity

What polyreactivity (PSR sort gate) value was documented for this sequence, QVQLVESGGGLVQAGGSLRLSCAASGFTFNRYAMGWYRQAPGKERELVAAIRSRGGSTYYADSVKGRFTISRDNAKNTVYLQMNSLKPEDTAVYYCAARSFQFYRFDYWGQGTQVTVSS ? high polyreactivity

Query: polyreactivity (PSR sort gate); subject: QVQLVESGGGLVQAGGSLRLSSAASGLTYSVYAMGWYRQAPGKERELVAAISGSGGSTYYADSVKGRFTISRDNAKNTVYLQMNSLKPEDTAVYYCAARYDVHYDGMDYWGLGTQVTVSS low polyreactivity

Could you share which polyreactivity (PSR sort gate) value was measured for QVQLVESGGGLVQAGGSRRLSCAASGSIFYLYAMGWSRQAPGKERELVATITWSGGSTYYADSVKGRFTISRDTAKNTVYLQMNSLKPEDTAVYYCAATALEWYPAVYNQYYYWGQGTQVTVSS ? low polyreactivity

Could you share which polyreactivity (PSR sort gate) value was measured for QVHLVESGGGLVQAGGSLRLSCAASGRTFGWNVMGWYRPAPGKERELVAAISGSGGSTYYADSVKGRFTISRDNAKNPVYLQMNSLKPEDTAVYYCAALYGPGREYDYWGQVTQVTVSS ? low polyreactivity

Name the reported polyreactivity (PSR sort gate) value associated with the sequence QVQLVESGGGLVQAGGSLRLSCAASGSNFVGYAMGWYRQAPGKERELVAAISWSGDSTYYADSVKGRFTISRDNAKITVYLQMNSLKPEDTAVYYCAVDYAEIGPRREVEYDYWGHGTQVTVSS low polyreactivity

Entry QVQLVESGGGLVQAGGSLRLSCAASGIIFAGYAMGWYRQAPGKERELVADITSSGTSTYYADSVKGRFTISRDNAKNTVYLQMNSLKPEDTAVYYCAADDPRKNFTILDYLYDYWGQGTQVTVSS has what polyreactivity (PSR sort gate)? low polyreactivity
